Hi there, I'd appreciate the recorded pKd for every entry that follows.
# measured-on: T1, GFP-9S library array, motif 4 ND N98W;D124C (synthetic construct, N98W;D124C)
# T1 chain: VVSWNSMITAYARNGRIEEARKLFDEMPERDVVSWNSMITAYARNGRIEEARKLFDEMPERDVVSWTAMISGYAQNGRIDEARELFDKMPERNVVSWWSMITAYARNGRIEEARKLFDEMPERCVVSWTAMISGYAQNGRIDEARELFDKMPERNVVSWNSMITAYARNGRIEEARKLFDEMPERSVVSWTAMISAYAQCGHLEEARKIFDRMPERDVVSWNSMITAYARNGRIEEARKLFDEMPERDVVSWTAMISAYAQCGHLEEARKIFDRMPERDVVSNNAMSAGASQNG
# procedure-summary: high-throughput RNA pulldown from lysate on Ni-NTA beads; HRP: 50 mM Tris pH 8, 150 mM NaCl, 1 mM beta-mercaptoethanol, 50 ug/ml BSA, 3 ug/ml yeast RNA, 0.5% heparin; ITC and FP: Tris pH 8, 200 mM KCl, 5% glycerol; MST: 50 mM Tris pH 8, 200 mM NaCl, 1 mM DTT, BSA, heparin, 0.05% Tween 20
# measurement-setup: tags: N-terminal His-eGFP; label: 5' IRDye 800CW
// pKd: -log10(molar conc.)

Query :: Name the recorded pKd of the binder listed here: AUUAAACGUGA (ssRNA) [IR-rpoA-A]
Result :: 6.74

Query :: Given AUUAUACGUGA (ssRNA) [IR-rpoA-U] , respond with its pKd.
Result :: 6.70
